tested on: T-47D breast; experiment: NCI tumour cell line growth inhibition, 48 h
Let's look at some molecules and their measured GI50.

molecule	GI50
Cc1cccc2c(C(=O)O[C@H](C(N)=O)[C@]3(C)CO3)cccc12	2.75 µM
O=C(NCCCCNC(=O)OCc1ccc2c(Cl)cc(Cl)c(O)c2n1)OCc1ccc2c(Cl)cc(Cl)c(O)c2n1	7.61 µM
COc1cc(C2=NNC(c3ccc(N(C)C)cc3)C2)cc(OC)c1OC (stereo not given)	19.8 µM

The reported GI50 value, T-47D breast, for `COc1ccc(/C=C/c2nnc(/C=C/c3ccc(OC)c(OC)c3)o2)cc1OC` reads 3.48 µM

The reported GI50 value, T-47D breast, for `Cn1cc(-c2nc3c(F)cc4[nH]ncc4c3c3c2CCCC3)c(C(F)(F)F)n1` reads 9.51 µM

The reported GI50 value, T-47D breast, for `O=C1/C(=C/c2ccc(Cl)cc2)COc2ccc(O)cc21` reads 2.22 µM

The reported GI50 value, T-47D breast, for `Cn1ncc2c(Sc3ccc(Cl)cc3)ncnc21` reads 14.4 µM

The reported GI50 value, T-47D breast, for `N#Cc1c(-c2ccccc2)cc(-c2ccccc2)n(CC(=O)NO)c1=O` reads 1.41 µM

The reported GI50 value, T-47D breast, for `COC1=CC(c2ccc[nH]2)=N/C1=C\c1[nH]c(C)c(C(=O)CCCCC(=O)NCc2ccccc2)c1C` reads 2.34 µM

The reported GI50 value, T-47D breast, for `CC(=O)c1nc2ccccc2n1CCN1CCN(C)CC1` reads 2.97 µM

Entry source: PubChem BioAssay (NCI)
